- assayed_system: Aldo-keto reductase family 1 member B1 (Rattus norvegicus); also: in other assays of this panel Not Active means under 50% inhibition at 10 µM;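 also: inhibition of aldose reductase enzyme activity, measured with DL-glyceraldehyde as the substrate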
- protocol_notes: biochemical
- Assay type: tissue-based, Lens of camera-type eye
measurement_type: Ki

- substance: "COLISTIN"
  test_value: "Not Active"
- substance: "ZIRCONIUM(IV) CHLORIDE"
  test_value: "Not Active"
- substance: "COBALTOUS CHLORIDE"
  test_value: "Not Active"
- substance: "TRANSPLATIN"
  test_value: "Not Active"

* * *

Attribute: pKi
- assayed_system: Beta-2 adrenergic receptor (Homo sapiens, UniProt P07550)
- Sequence (P07550 whole entry): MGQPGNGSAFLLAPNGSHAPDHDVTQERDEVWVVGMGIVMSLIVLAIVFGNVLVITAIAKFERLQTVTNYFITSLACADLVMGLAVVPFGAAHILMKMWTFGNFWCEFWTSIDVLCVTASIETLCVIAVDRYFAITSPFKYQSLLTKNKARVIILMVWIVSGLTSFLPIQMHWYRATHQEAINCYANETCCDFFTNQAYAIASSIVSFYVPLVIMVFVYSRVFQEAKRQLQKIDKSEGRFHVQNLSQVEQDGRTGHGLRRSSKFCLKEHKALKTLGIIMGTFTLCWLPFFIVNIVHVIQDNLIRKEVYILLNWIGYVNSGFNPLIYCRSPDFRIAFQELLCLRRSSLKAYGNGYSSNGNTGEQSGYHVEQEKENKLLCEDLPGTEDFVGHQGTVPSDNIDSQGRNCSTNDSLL
- protocol_notes: DRUGMATRIX: Adrenergic beta2 radioligand binding (ligand: [3H] CGP-12177)
- Format: cell membranes, CHO, Membrane
- condition_notes: Not Active = under 50% inhibition at 10 µM; read-out: Ki
pKi: −log10 of the molar value.
measurement_type: pKi

- compound: "CN(C)C(=O)C(CCN1CCC(O)(c2ccc(Cl)cc2)CC1)(c1ccccc1)c1ccccc1 [LOPERAMIDE]"
  measurement_type: "pKi"
  test_value: 5.68
- compound: "CC(C)NCC(O)c1ccccc1Cl (configuration not stated) [CLORPRENALINE]"
  measurement_type: "pKi"
  test_value: 5.86
